# Tested on: Oryza sativa (ORYSA)
# Format: in vivo
# Experimental conditions: crop plant compatibility, 80 g/ha, effect in comparison to untreated controls
Measurement label: Post-emergence action against ORYSA in % (%)

The cases that follow already have their Post-emergence action against ORYSA in % on record.
* O=C(O)CSc1nn(-c2ccccn2)c(-c2ccc(F)nc2)c1Br [Example I-69] | 0
* COC(=O)CNC(=O)[C@@H](C)Oc1nn(-c2ccccn2)c(-c2cncc(F)c2)c1Br [Example I-187] | 10
* O=C(O)COc1nn(-c2nc(F)ccc2F)c(-c2cncc(F)c2)c1Br [Example I-207] | 10

[A] CCOC(=O)COc1nn(-c2ccnc(Cl)c2)c(-c2ccc(F)nc2)c1Br [III-24]
[B] COC(=O)C(C)COC(=O)C(C)Oc1nn(-c2ccccn2)c(-c2ccc(F)nc2)c1Br (stereo not drawn) [Example I-285]
[C] COC(=O)CN(C)C(=O)COc1nn(-c2ccnc(Cl)c2)c(-c2ccc(F)nc2)c1Br [III-21]
Hey, quick one: sort these by Post-emergence action against ORYSA in %, low to high? Reply format: the labels, ordered as requested. A, B, C

[1] O=C(O)COc1nn(-c2ccccn2)c(-c2ccc(F)nc2)c1C(F)(F)F [Example I-99]
[2] COC(=O)C(C)OC(=O)C(C)Oc1nn(-c2ccccn2)c(-c2ccc(F)nc2)c1Br (stereo not drawn) [Example I-288]
Hi team, can someone confirm which has the larger Post-emergence action against ORYSA in %: 1 or 2 ? Thanks. Record your answer as the label of the chosen record. 2
